PROCEDURE SUMMARY: physchem
Description: Classification of ionization constant (pKa)
Think of 8 as a floor: if pKa stands on it or above, it is True; beneath it, False.

query: Answer whether pKa of O=C(CCOCCc1ccccc1)NCCNCCc1ccc(O)c2nc(O)sc12 is greater than or equal to 8.
result: False

Further cases:
query: Answer whether pKa of Oc1nc2c(O)ccc(CCNCCCOCCOCCc3ccccc3)c2s1 is greater than or equal to 8.
result: False

query: Answer whether pKa of O=S(=O)(CCOCCc1ccccc1)NCCNCCc1ccc(O)c2nc(O)sc12 is greater than or equal to 8.
result: False

query: Answer whether pKa of O=c1[nH]c2c(O)ccc(CCNCCS(=O)(=O)CCCOCCc3ccccc3)c2s1 is greater than or equal to 8.
result: True

query: Answer whether pKa of O=S(=O)(CCCNCCc1ccc(O)c2nc(O)sc12)CCOCCc1ccccc1 is greater than or equal to 8.
result: False

query: Answer whether pKa of Oc1nc2c(O)ccc(CCNCCOCCCOCCc3ccccc3)c2s1 is greater than or equal to 8.
result: False
